Molecular target: VAX1; further: reference of the scale not given here
Test: pooled miR-30 sensor sort-seq; sequence = guide strand
Conditions: shRNA
Mark Yes for reported sensor-assay potency score (higher = more potent) of -0.4 or greater; mark No for anything smaller.

Sample answers from the record:
> print(dat)
            sequenceentry  labelclass
1  TTGGGCAGGATGATCTCTCGGA         Yes
2  TTTTGTTACAATCCTCAGCAGC          No
3  TTACTTTTGTTACAATCCTCAG          No

Asked: Check the entry TTTACTTTTGTTACAATCCTCA : does sensor-assay potency score (higher = more potent) equal or exceed -0.4?
Given back: Yes

Asked: Ok, now TTTGTTTTTTTATCCCGCGTTT
Given back: No

Asked: Next up: TTCTTTATTGTTGGTCCGGGAG
Given back: No
